Target: human ALK2 R206H (Homo sapiens, UniProt Q04771, R206H)
Sequence (Q04771 21-509 R206H): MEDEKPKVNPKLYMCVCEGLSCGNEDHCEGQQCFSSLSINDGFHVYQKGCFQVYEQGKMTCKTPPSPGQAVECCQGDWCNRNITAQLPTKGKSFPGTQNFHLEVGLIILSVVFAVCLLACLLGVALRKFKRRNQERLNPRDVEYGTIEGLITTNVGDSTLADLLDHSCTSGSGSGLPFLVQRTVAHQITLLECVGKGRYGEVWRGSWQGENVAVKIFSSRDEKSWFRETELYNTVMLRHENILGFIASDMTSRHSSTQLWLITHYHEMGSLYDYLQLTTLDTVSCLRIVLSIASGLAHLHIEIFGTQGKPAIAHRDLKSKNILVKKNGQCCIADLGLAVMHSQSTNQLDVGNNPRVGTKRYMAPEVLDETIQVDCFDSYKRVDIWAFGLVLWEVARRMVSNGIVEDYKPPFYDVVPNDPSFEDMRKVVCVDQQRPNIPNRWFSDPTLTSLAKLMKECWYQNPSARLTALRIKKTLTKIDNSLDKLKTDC
Experiment: Cell-based ALK2-R206H cell activity assay (Smad1-Ser463/Ser465 phosphorylation by AlphaLISA in HEK293-ALK2-R206H cells)
Details: phospho-Smad1 AlphaLISA, read-out: Cell Line (Cell Assay, IC50 class)
pIC50: −log10 of the molar value.
REPORTED_METRIC: pIC50

Reference set (3 entries):
| MOL | REPORTED_METRIC | RESULT |
| --- | --- | --- |
| CCOC(=O)N1CCN(c2ccnc3[nH]c(-c4ncc(OC)cc4C#N)cc23)CC1 | pIC50 | 6.30 to 7.00 |
| Cn1cnc(-c2cc3c(N4CCN(C(=O)O[C@@H]5CCC5(F)F)CC4)ccnc3[nH]2)c1 | pIC50 | ≥ 7.00 |
| O=C(C1CC1)N1CCN(c2ccnc3[nH]c(-c4ccc(C5(O)COC5)cc4)cc23)CC1 | pIC50 | 6.30 to 7.00 |

Please look at this compound and report its pIC50: "Cc1nc(-c2cc3c(N4CCN(C(=O)OC5CCC5)CC4)ccnc3[nH]2)cn1C" ≥ 7.00

Give me measured pIC50, please, for this compound: "Cn1cc(-c2cc3c(N4CCN(C(=O)[C@@H]5C[C@H]5F)CC4)ccnc3[nH]2)cn1" ≥ 7.00

Give me measured pIC50, please, for this compound: "O=C(C1CC1)N1CCN(c2ccnc3[nH]c(-c4ccc(C5(O)CCCC5)cc4)cc23)CC1" ≥ 7.00

Fill in pIC50 for record "CCOC(=O)N1CCN(c2ccnc3[nH]c(-c4ccc(C(C)(C)C#N)cn4)cc23)CC1" ≥ 7.00

Respond only with pIC50 recorded for "Cn1cnc(-c2[nH]c3nccc(N4CCN(C(=O)OC5COC5)CC4)c3c2C#N)c1" ≥ 7.00
